Measured mortality at 336 h, listed per entry.
- assayComment: i.p. toxicity in Swiss EOPS mice, mortality at 14 days
- assayConditions: mouse, in vivo, ip; 500 mg/kg i.p., DMSO solution at 1/2; read-out: percentages of mortality at the end of 14 days
Answer with a number only, understood to be in %.

>>> recordedvalue("O=c1ccc2cc(O[C@@H]3O[C@@H]4COC5(CCCCC5)O[C@H]4[C@H](O)[C@H]3O)c(O)cc2o1")
10
>>> recordedvalue("CC1(C)OC[C@H]2O[C@@H](Oc3cc4ccc(=O)oc4cc3O)[C@H](O)[C@@H](O)[C@@H]2O1")
10

Consider the additional compound presented here.
Bench note: what mortality at 336 h did C[C@@H]1O[C@@H](O[C@H]2[C@H](Oc3cc(O)c4c(c3)OC(c3ccc(O)cc3)CC4=O)O[C@H](CO)[C@@H](O)[C@@H]2O)[C@@H]2OC(C)(C)O[C@@H]2[C@H]1O (stereo partly drawn) show?
0

// data source = patent US4211772A
